assay: Compound 1 single dose rat PK study; type: in vivo, male Sprague Dawley rats; conditions: male, Sprague Dawley, plasma, iv, 2 mg/kg, single iv dose 2 mg/kg, Mean of the 3 rats
OBSERVED PROPERTY: AUC(0-inf)
Give the figure together with its unit, number first.

// query Consider the compound CC(=O)N1CCc2c(C(=O)N3CCC(c4ccc(F)c(F)c4C(F)(F)F)CC3)n[nH]c2C1 and give its measured AUC(0-inf).
// result 3.97 µg·h/mL

###

assay: Compound 2 single dose rat PK study; format: in vivo, male Sprague Dawley rats; settings: male, Sprague Dawley, plasma, iv, 2 mg/kg, single iv dose 2 mg/kg, Mean of the 3 rats, read-out: Vss
OBSERVED PROPERTY: Vd
State the result as a value with its unit after it.

// query Need Vd, item CC(=O)N1Cc2[nH]nc(C(=O)N3CCC(c4ccc(F)c(F)c4C(F)(F)F)CC3)c2C1
// result 0.436 L/kg

###

assay: Compound 2 single dose rat PK study; assay type: in vivo, male Sprague Dawley rats; settings: male, Sprague Dawley, plasma, po, 5 mg/kg, single po dose 5 mg/kg, individual rats, read-out: Cmax
OBSERVED PROPERTY: Cmax
Output should be the measured figure followed by the unit it is expressed in.

// query What does the data say about its Cmax? Entry: CC(=O)N1Cc2[nH]nc(C(=O)N3CCC(c4ccc(F)c(F)c4C(F)(F)F)CC3)c2C1
// result 1530 ng/mL

###

assay: Compound 1 single dose non-human primate PK study; type: in vivo, Cynomolgus Macaques; settings: cynomolgus monkey, plasma, po, 5 mg/kg, NHP, single po dose 5 mg/kg, individual animals
OBSERVED PROPERTY: MRT inf
Write your answer as a measured quantity: the number, then the unit.

// query Would you mind telling me what MRT inf value was observed for CC(=O)N1CCc2c(C(=O)N3CCC(c4ccc(F)c(F)c4C(F)(F)F)CC3)n[nH]c2C1 [Compound 1] ?
// result 11.7 h

###

assay: Compound 1 single dose rat PK study; assay type: in vivo, male Sprague Dawley rats; conditions: male, Sprague Dawley, plasma, iv, 2 mg/kg, single iv dose 2 mg/kg, individual rats, read-out: Vss
OBSERVED PROPERTY: Vd
Field note: include the unit after the figure.

// query GET /values?readout=Vd&item= CC(=O)N1CCc2c(C(=O)N3CCC(c4ccc(F)c(F)c4C(F)(F)F)CC3)n[nH]c2C1 [Compound 1]
// result 1.69 L/kg

###

test: Compound 1 single dose non-human primate PK study; assay type: in vivo, Cynomolgus Macaques; conditions: cynomolgus monkey, plasma, po, 5 mg/kg, NHP, single po dose 5 mg/kg, Mean of the 3 animals
OBSERVED PROPERTY: AUC(0-inf) (ng·h/mL)
// return numeric value only (unit: ng·h/mL, not printed)

// query // lookup AUC(0-inf) for CC(=O)N1CCc2c(C(=O)N3CCC(c4ccc(F)c(F)c4C(F)(F)F)CC3)n[nH]c2C1
// result 4080

###

assay: Compound 1 single dose non-human primate PK study; assay type: in vivo, Cynomolgus Macaques; conditions: cynomolgus monkey, plasma, po, 5 mg/kg, NHP, single po dose 5 mg/kg, Mean of the 3 animals
OBSERVED PROPERTY: MRT inf
Provide the measurement as a number trailed by its unit.

// query Recorded MRT inf for CC(=O)N1CCc2c(C(=O)N3CCC(c4ccc(F)c(F)c4C(F)(F)F)CC3)n[nH]c2C1 [Compound 1] , please?
// result 11.3 h

###

assay: Compound 1 single dose non-human primate PK study; assay type: in vivo, Cynomolgus Macaques; conditions: cynomolgus monkey, plasma, iv, 1 mg/kg, NHP, single iv dose 1 mg/kg, individual animals; read-out: MRT last
OBSERVED PROPERTY: MRT last (h)
Provide only the numeric value, understood in h.

// query Suppose we examine the molecule CC(=O)N1CCc2c(C(=O)N3CCC(c4ccc(F)c(F)c4C(F)(F)F)CC3)n[nH]c2C1 ; what MRT last value has been reported?
// result 5.9

###

test: Compound 1 single dose non-human primate PK study; format: in vivo, Cynomolgus Macaques; conditions: cynomolgus monkey, plasma, iv, 1 mg/kg, NHP, single iv dose 1 mg/kg, individual animals; read-out: Cmax
OBSERVED PROPERTY: Cmax (ng/mL)
Just the number in ng/mL, nothing appended.

// query May I ask what Cmax has been recorded for CC(=O)N1CCc2c(C(=O)N3CCC(c4ccc(F)c(F)c4C(F)(F)F)CC3)n[nH]c2C1 ?
// result 970

###

experiment: Compound 1 single dose non-human primate PK study; assay type: in vivo, Cynomolgus Macaques; conditions: cynomolgus monkey, plasma, iv, 1 mg/kg, NHP, single iv dose 1 mg/kg, individual animals
OBSERVED PROPERTY: MRT inf (h)
// return numeric value only (unit: h, not printed)

// query I have this compound here, CC(=O)N1CCc2c(C(=O)N3CCC(c4ccc(F)c(F)c4C(F)(F)F)CC3)n[nH]c2C1 , and I need its recorded MRT inf.
// result 6.3

###

test: Compound 1 single dose rat PK study; format: in vivo, male Sprague Dawley rats; details: male, Sprague Dawley, plasma, po, 5 mg/kg, single po dose 5 mg/kg, Mean of the 3 rats
OBSERVED PROPERTY: Tmax (h)
Please give a number only; it is taken to be in h.

// query # get_value(readout='Tmax', item= CC(=O)N1CCc2c(C(=O)N3CCC(c4ccc(F)c(F)c4C(F)(F)F)CC3)n[nH]c2C1 )
// result 1.42

###

Assay: Compound 1 single dose rat PK study
Assay type: in vivo, male Sprague Dawley rats
Details: male, Sprague Dawley, plasma, iv, 2 mg/kg, single iv dose 2 mg/kg, individual rats, read-out: Cmax
Method: A pharmacokinetic study of Compound 1 following a single intravenous or oral dose administration to male Sprague Dawley rats was conducted, the results of which are found in Table 3 and FIGS. 9-14.
OBSERVED PROPERTY: Cmax (ng/mL)
State just the number; it will be interpreted in ng/mL.

// query Given CC(=O)N1CCc2c(C(=O)N3CCC(c4ccc(F)c(F)c4C(F)(F)F)CC3)n[nH]c2C1 [Compound 1] , state its recorded Cmax.
// result 1670

###

experiment: Compound 2 single dose rat PK study; assay type: in vivo, male Sprague Dawley rats; conditions: male, Sprague Dawley, plasma, po, 5 mg/kg, single po dose 5 mg/kg, Mean of the 3 rats
OBSERVED PROPERTY: MRT last (h)
Write the value in h as a bare number.

// query MRT last value for entry CC(=O)N1Cc2[nH]nc(C(=O)N3CCC(c4ccc(F)c(F)c4C(F)(F)F)CC3)c2C1
// result 4.5

###

Test: Compound 1 single dose non-human primate PK study
Assay type: in vivo, Cynomolgus Macaques
Settings: cynomolgus monkey, plasma, iv, 1 mg/kg, NHP, single iv dose 1 mg/kg, Mean of the 3 animals
Procedure: A pharmacokinetic study of Compound 1 following a single intravenous or oral dose administration to non-human primates (Cynomolgus Macaques) was conducted, the results of which are found in Table 2 and FIGS. 1-8.
OBSERVED PROPERTY: clearance (mL/min/kg)
Provide only the numeric value, understood in mL/min/kg.

// query State the recorded clearance for this entry: CC(=O)N1CCc2c(C(=O)N3CCC(c4ccc(F)c(F)c4C(F)(F)F)CC3)n[nH]c2C1
// result 3.88

###

Test: Compound 2 single dose rat PK study
Type: in vivo, male Sprague Dawley rats
Conditions: male, Sprague Dawley, plasma, po, 5 mg/kg, single po dose 5 mg/kg, individual rats
Method: A pharmacokinetic study of Compound 2 following a single intravenous or oral dose administration to male Sprague Dawley rats was conducted, the results of which are found in Table 5 and FIGS. 21-24.
OBSERVED PROPERTY: Tmax (min)
Express it in min; write the number only.

// query I'd like to know its Tmax. The molecule in question is CC(=O)N1Cc2[nH]nc(C(=O)N3CCC(c4ccc(F)c(F)c4C(F)(F)F)CC3)c2C1
// result 30

###

test: Compound 1 single dose non-human primate PK study; type: in vivo, Cynomolgus Macaques; settings: cynomolgus monkey, plasma, po, 5 mg/kg, NHP, single po dose 5 mg/kg, Mean of the 3 animals; read-out: MRT last
OBSERVED PROPERTY: MRT last
In your response, put the unit directly after the numeric value.

// query What value of MRT last has been recorded for this entry: CC(=O)N1CCc2c(C(=O)N3CCC(c4ccc(F)c(F)c4C(F)(F)F)CC3)n[nH]c2C1
// result 10.2 h

###

assay: Compound 2 single dose rat PK study; type: in vivo, male Sprague Dawley rats; details: male, Sprague Dawley, plasma, po, 5 mg/kg, single po dose 5 mg/kg, Mean of the 3 rats
OBSERVED PROPERTY: AUC(0-inf)
Express your answer as a number followed by its unit.

// query Need AUC(0-inf) of CC(=O)N1Cc2[nH]nc(C(=O)N3CCC(c4ccc(F)c(F)c4C(F)(F)F)CC3)c2C1 , thanks.
// result 6410 ng·h/mL

###

experiment: Compound 2 single dose rat PK study; format: in vivo, male Sprague Dawley rats; conditions: male, Sprague Dawley, plasma, iv, 2 mg/kg, single iv dose 2 mg/kg, individual rats
OBSERVED PROPERTY: MRT last (h)
// note: answer is a bare numeric in h

// query Requested read-out: MRT last. Entry: CC(=O)N1Cc2[nH]nc(C(=O)N3CCC(c4ccc(F)c(F)c4C(F)(F)F)CC3)c2C1
// result 2
